# Assay info: Cytotoxicity in AML12HBV10 cells (MTT assay)
# Type: cell-based, murine
# Conditions used: mouse, concentration that reduces viability by 50%, serial dilution 50 μM to 0.39 μM
Listed here: items and their measured CC50 at 48 h.

Before answering, review these 5 worked examples.
> print(dat)
               compound.structure.string  measured.attribute  value.reported
1         O=C(Nc1cccc(I)c1)c1scc2c1OCCO2        CC50 at 48 h         > 50 µM
2  O=C(Nc1cccc(C(F)(F)F)c1)c1scc2c1OCCO2        CC50 at 48 h         > 50 µM
3         O=C(Nc1ccc(O)cc1)c1scc2c1CCCC2        CC50 at 48 h         > 50 µM
4        COc1cccc(NC(=O)c2scc3c2CCCC3)c1        CC50 at 48 h         > 50 µM
5     O=C(Nc1ccc(F)c(F)c1)c1ccc2ccccc2c1        CC50 at 48 h         > 50 µM

Lab note: measured CC50 at 48 h of O=C(Nc1c(F)cc(F)cc1F)c1cccc2c1OCCO2 was > 10 µM

Lab note: measured CC50 at 48 h of O=C(Nc1cccc(Cl)c1)c1cccc2c1OCCCO2 was > 25 µM

Lab note: measured CC50 at 48 h of O=C(Nc1cccc(Cl)c1)c1ccccc1Cl was > 50 µM

Lab note: measured CC50 at 48 h of O=C(Nc1cccc(Cl)c1)c1cccc2ccccc12 was > 50 µM

Lab note: measured CC50 at 48 h of O=C(Nc1ccc(F)c(F)c1)c1cccc2c1OCCCO2 was > 25 µM

====

# Test system: encapsidated pgRNA
# Assay info: Encapsidated pgRNA by Northern blot in AML12HBV10 cells
# Format: cell-based, Hepatitis B virus (HBV)
# Conditions used: 2 days, FIG. 1 panel C
Measured attribute: level of encapsidated pgRNA

> print(dat)
                                   compound            value.reported
1          O=C(Nc1cccc(Cl)c1)c1cccc2c1OCCO2  dose-dependently reduced
2           O=C(Nc1cccc(Cl)c1)c1scc2c1OCCO2  dose-dependently reduced
3  O=C(N/C(C(=O)N1CCCCC1)=C(/Cl)c1ccccc1)c1ccccc1 [AT-61, reference compound]  dose-dependently reduced

====

# System: HBV replication in AML12HBV10 cells
# Assay info: Antiviral efficacy in AML12HBV10 cells (HBV DNA dot-blot hybridization)
# Type: cell-based, Hepatitis B virus (HBV)
# Conditions used: Hepatitis B virus, AML12HBV10, 48 h, read-out: AML12HBV10 EC50, concentration that reduces the amount of HBV DNA by 50%, serial dilution 50 μM to 0.39 μM
Listed here: items and their measured log10 of EC50.
Would you kindly interpret these values as log10 of EC50 expressed in µM?

> print(dat)
         compound.structure.string  measured.attribute  value.reported
1  O=C(Nc1cccc(Cl)c1)c1scc2c1OCCO2       log10 of EC50           -0.40

The compound O=C(Nc1ccc(Cl)c(F)c1)c1cccc2c1CCCC2 , when measured on HBV replication in AML12HBV10 cells, yielded log10 of EC50 of 0.22

The compound O=C(Nc1ccc(F)cc1Cl)c1cccc2c1OCCO2 , when measured on HBV replication in AML12HBV10 cells, yielded log10 of EC50 of 0.87

The compound O=C(Nc1cccc(C(F)(F)F)c1)c1scc2c1OCCO2 , when measured on HBV replication in AML12HBV10 cells, yielded log10 of EC50 of 0.93

The compound O=C(Nc1ccc(F)c(F)c1)c1cccc2c1OCCCO2 , when measured on HBV replication in AML12HBV10 cells, yielded log10 of EC50 of 0.29

The compound O=C(Nc1cccc(Cl)c1)c1cccc2c1OCCCO2 , when measured on HBV replication in AML12HBV10 cells, yielded log10 of EC50 of 0.44

The compound O=C(Nc1ccc(F)c(F)c1)c1cccc2c1CCCC2 , when measured on HBV replication in AML12HBV10 cells, yielded log10 of EC50 of 0.17

The compound O=C(Nc1ccc(F)cc1F)c1cccc(Cl)c1Cl , when measured on HBV replication in AML12HBV10 cells, yielded log10 of EC50 of 1.12

The compound O=C(Nc1ccc(Cl)c(F)c1)c1cccc2c1OCCO2 , when measured on HBV replication in AML12HBV10 cells, yielded log10 of EC50 of 0.17

The compound O=C(Nc1cccc(Cl)c1)c1ccccc1Cl , when measured on HBV replication in AML12HBV10 cells, yielded log10 of EC50 of 1.09

The compound O=C(Nc1ccc(F)cc1)c1cccc2c1OCCO2 , when measured on HBV replication in AML12HBV10 cells, yielded log10 of EC50 of -0.40

The compound COc1cccc(NC(=O)c2scc3c2CCCC3)c1 , when measured on HBV replication in AML12HBV10 cells, yielded log10 of EC50 of 0.90

The compound O=C(Nc1ccc(F)cc1F)c1cccc2c1OCCO2 , when measured on HBV replication in AML12HBV10 cells, yielded log10 of EC50 of 0.93

The compound O=C(Nc1ccc(F)c(Cl)c1)c1cccc2c1OCCCO2 , when measured on HBV replication in AML12HBV10 cells, yielded log10 of EC50 of 0.04

The compound O=C(Nc1cc(Cl)cc(Cl)c1)c1cccc2c1OCCO2 , when measured on HBV replication in AML12HBV10 cells, yielded log10 of EC50 of 0.69

The compound O=C(Nc1cccc(Cl)c1)c1cccc(Cl)c1Cl , when measured on HBV replication in AML12HBV10 cells, yielded log10 of EC50 of 0.92

The compound O=C(Nc1cccc(Cl)c1)c1c(Cl)cccc1Cl , when measured on HBV replication in AML12HBV10 cells, yielded log10 of EC50 of 1.55

The compound O=C(Nc1ccccc1)c1scc2c1OCCO2 , when measured on HBV replication in AML12HBV10 cells, yielded log10 of EC50 of 0.48

The compound O=C(Nc1cc(F)ccc1F)c1cccc2c1OCCO2 , when measured on HBV replication in AML12HBV10 cells, yielded log10 of EC50 of 1.17

The compound O=C(Nc1cccc(Cl)c1)c1csc2ccccc12 , when measured on HBV replication in AML12HBV10 cells, yielded log10 of EC50 of 1.48

====

# Assay info: Cytotoxicity in AML12HBV10 cells (MTT assay)
# Assay type: cell-based, murine
# Conditions used: mouse, concentration that reduces viability by 50%, serial dilution 50 μM to 0.39 μM
Measured attribute: CC50 at 48 h

Before answering, review these 3 worked examples.
> print(dat)
             compound.structure.string  value.reported
1     O=C(Nc1ccc(F)cc1F)c1cccc2c1OCCO2         > 10 µM
2   O=C(Nc1ccc(F)c(F)c1)c1cccc2c1OCCO2         > 10 µM
3  O=C(Nc1ccc(F)c(F)c1F)c1cccc2c1OCCO2         > 10 µM

Lab note: measured CC50 at 48 h of O=C(Nc1cccc(Cl)c1)c1ccccc1F was > 50 µM

Lab note: measured CC50 at 48 h of O=C(Nc1ccc(F)c(Cl)c1)c1cccc2c1OCCCO2 was > 25 µM

Lab note: measured CC50 at 48 h of O=C(Nc1ccc(F)cc1)c1cccc2c1OCCO2 was > 10 µM

====

Listed here: items and their measured CC50 at 48 h.
# Assay info: Cytotoxicity in AML12HBV10 cells (MTT assay)
# Type: cell-based, murine
# Conditions used: mouse, concentration that reduces viability by 50%, serial dilution 50 μM to 0.39 μM

Lab note: measured CC50 at 48 h of O=C(Nc1ccc(Cl)c(Cl)c1)c1cccc2c1OCCO2 was > 10 µM

Lab note: measured CC50 at 48 h of O=C(Nc1ccc(F)cc1)c1scc2c1CCCC2 was > 50 µM

Lab note: measured CC50 at 48 h of O=C(Nc1ccc(F)cc1Cl)c1cccc2c1OCCO2 was > 10 µM

Lab note: measured CC50 at 48 h of O=C(Nc1ccccc1)c1scc2c1CCCC2 was > 50 µM

Lab note: measured CC50 at 48 h of O=C(Nc1ccccc1)c1scc2c1OCCO2 was > 50 µM

Lab note: measured CC50 at 48 h of O=C(Nc1ccc(F)c(F)c1)c1cccc(Cl)c1Cl was > 10 µM

Lab note: measured CC50 at 48 h of O=C(Nc1cc(Cl)cc(Cl)c1)c1cccc2c1OCCO2 was > 50 µM

Lab note: measured CC50 at 48 h of O=C(Nc1ccc(F)c(F)c1)c1cccc2c1CCCC2 was > 25 µM

Lab note: measured CC50 at 48 h of O=C(Nc1ccc(F)c(Cl)c1)c1cccc2c1OCCO2 was > 10 µM

Lab note: measured CC50 at 48 h of O=C(Nc1cccc(F)c1)c1cccc2c1OCCO2 was > 10 µM

Lab note: measured CC50 at 48 h of O=C(Nc1cccc(Cl)c1)c1csc2ccccc12 was > 50 µM

Lab note: measured CC50 at 48 h of O=C(Nc1cc(F)ccc1F)c1cccc2c1OCCO2 was > 10 µM

Lab note: measured CC50 at 48 h of O=C(Nc1cccc(Cl)c1)c1ccccc1 was > 50 µM

Reference source: patent US20190092720A1
